The measured values listed here are drawn from patent EP4635500A1.

test system: P. aeruginosa; assay: MIC, broth microdilution, CDC/FDA Antibiotic Resistance Isolate Bank (Example 7, Tables 10, 15); type: cell-based; details: Pseudomonas aeruginosa, P. aeruginosa KUB No. 5805, AR Bank # 863; read-out: MIC
Experimental endpoint: MIC (µg/mL)
Give bare numbers, in µg/mL.

Answered cases to consult:
Compound	Tested system	Unit text	MIC
CN(C)c1cc(NC(=O)CNC(C)(C)C)c(O)c2c1C[C@H]1C[C@H]3[C@H](N(C)C)C(O)=C(C(N)=O)C(=O)[C@@]3(O)C(O)=C1C2=O [Tigecycline, tigecycline]	P. aeruginosa	µg/mL	8
C[C@H]1[C@H](NC(=O)/C(=N\OC(C)(C)C(=O)O)c2csc(N)n2)C(=O)N1S(=O)(=O)O [Aztreonam, aztreonam]	P. aeruginosa	µg/mL	16
CC(C)(O/N=C(\C(=O)N[C@@H]1C(=O)N2C(C(=O)[O-])=C(C[N+]3(CCNC(=O)c4ccc(O)c(O)c4Cl)CCCC3)CS[C@H]12)c1csc(N)n1)C(=O)O [Cefiderocol, cefiderocol]	P. aeruginosa	µg/mL	0.5

Here is another compound to look at.
# input Tell me the measured MIC of C[C@H]1COc2c(N3CCN(C)CC3)c(F)cc3c(=O)c(C(=O)O)cn1c23 [Levofloxacin, levofloxacin] , please.
# output 64
